testedSystem: Cytochrome P450 2C8 (Homo sapiens, UniProt P10632)
Sequence (P10632 whole entry): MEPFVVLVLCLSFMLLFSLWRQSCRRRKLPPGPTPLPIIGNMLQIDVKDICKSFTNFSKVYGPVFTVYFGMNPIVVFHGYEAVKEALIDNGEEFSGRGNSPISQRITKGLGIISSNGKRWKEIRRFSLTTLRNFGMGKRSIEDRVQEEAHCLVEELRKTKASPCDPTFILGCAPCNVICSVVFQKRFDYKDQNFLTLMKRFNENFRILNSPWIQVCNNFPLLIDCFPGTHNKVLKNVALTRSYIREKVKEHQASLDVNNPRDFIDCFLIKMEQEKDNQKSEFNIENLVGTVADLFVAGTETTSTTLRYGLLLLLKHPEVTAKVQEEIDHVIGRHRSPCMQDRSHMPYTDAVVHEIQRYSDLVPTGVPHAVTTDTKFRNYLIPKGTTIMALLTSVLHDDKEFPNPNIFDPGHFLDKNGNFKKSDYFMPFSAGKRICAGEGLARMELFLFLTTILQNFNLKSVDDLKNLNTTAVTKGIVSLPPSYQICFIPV
# IC50 listing for each entry below

# molecularString, IC50
rows = [
    ("Cc1ncn(-c2cc(Cl)c(C(=O)NC[C@@H](c3cccc(F)c3)c3nc4c(C)cc(Cl)cc4[nH]3)c(Cl)c2)n1", "4.04 µM"),
    ("Cc1ncn(-c2cc(Cl)c(C(=O)NC[C@@H](c3cccc(F)c3)c3ccc4[nH]c(C)nc4c3)c(Cl)c2)n1", "1.57 µM"),
    ("Cc1ncn(-c2cc(Cl)c(C(=O)NC[C@@H](c3cccc(F)c3)c3nc4ccc(Cl)cc4[nH]3)c(Cl)c2)n1", "5.28 µM"),
]
